Listed below: TGI values for each entry.
# System: COLO 205 colon
# assay_details: NCI tumour cell line growth inhibition, 48 h
quantity_kind: TGI

compound	quantity_kind	result
COc1ccccc1C1SCC(=O)N1c1ccc(-n2c(-c3ccccc3)nc3ccccc3c2=O)cc1 (centres undefined)	TGI	> 100 µM
COc1ccc(CCN2C(=O)C=CC2=O)cc1OC	TGI	3.54 µM
CC(=O)N1c2ccccc2C23CCN(C)CC4C(C)OCC(C4CC2=O)C13 (centres undefined)	TGI	> 100 µM
C/C(=C\C(C)COCc1ccccc1)[C@H](COCc1ccccc1)OCc1ccccc1 (some centres undefined)	TGI	> 100 µM
CC(C)/C(Cl)=N\OC(=O)Nc1cccc(F)c1	TGI	5.87 µM
CC1=C[C@H]2c3c(c(O)c(O)c4oc5c(C)cccc5c(=O)c34)[C@H](c3cc(O)c(O)c4oc5c(C)cccc5c(=O)c34)[C@H]2C(C)(C)C1	TGI	6.8 µM
COc1ccc2cc(C(C)C(O)c3cc(F)c(F)c(F)c3F)ccc2c1 (centres undefined)	TGI	> 100 µM
CCCCON1C[C@@H](O)C(O)[C@@H](O)C1 (some centres undefined)	TGI	> 100 µM
CC1Cc2c(Br)nc(N)nc2NC1=O (centres undefined)	TGI	> 100 µM
O=C(O)CN1CCNCCN(CP(=O)(O)O)CC1	TGI	> 100 µM
COC(OC)C1OC(CO)C(n2cc(C)c(=O)[nH]c2=O)C1O (centres undefined)	TGI	> 100 µM
CN(NC(=O)c1ccco1)C1=NCCN1	TGI	> 100 µM
Oc1ccccc1-c1nn(CNc2cccc(Cl)c2)c(=S)o1	TGI	> 100 µM
O=c1c2cccc(Cl)c2sc2c(NCCCNCCO)nc3ccccc3c12	TGI	4.39 µM

* * *

# Tested on: DU-145 prostate
# assay_details: NCI tumour cell line growth inhibition, 48 h; in the data active = GI50 below about 0.43 µM; inactive = the rest
Classes used: label 1 (active), label 0 (inactive)

molecule	group_label
COc1ccc2c(c1)C(=O)/C(=C/c1cccc(OCC(=O)Nc3nc4c(s3)CCCC4)c1)O2	label 0
COc1ccc2c(c1)c(-c1ccc(-c3cn(S(=O)(=O)c4ccccc4)c4ccc(OC)cc34)s1)cn2S(=O)(=O)c1ccccc1	label 0
CC(=O)N1N=C2/C(=C/c3ccccc3)CC(C)CC2C1c1ccccc1 (configuration not stated)	label 0
COc1cc2c3c(n(CCCCOC(=O)C(F)(F)F)c(=O)c2cc1OC)-c1cc2c(cc1C3=O)OCO2	label 0
O=C(CN1CCN(c2ncnc3ccccc23)CC1)Nc1ccc(Cl)cc1C(=O)c1ccccc1Cl	label 1
C/C=C(\C)C(=O)N[C@H]1CC[C@]2(C)C3CC[C@@]4(C)C(CC[C@@H]4C(C)N(C)C)C3CCC2[C@H]1OC(C)=O (some centres not stated)	label 0
CC(C)(C)NC(C1=CC(C)(C)c2ccccc2C1=O)c1ccccc1 (configuration not stated)	label 0

* * *

# Tested on: SK-MEL-5 melanoma
# assay_details: NCI tumour cell line growth inhibition, 48 h
Listed molecules paired with reported TGI
quantity_kind: TGI

molecule	result
Cc1ccc2c(c1)C(=O)/C(=C\c1ccccc1)CCS2(=O)=O	29.4 µM
COC(=O)/C=C1/CCC2[C@@H](C(=O)CC3[C@]2(C)CCC[C@@]3(C)C(=O)OC)C1C (some centres undefined)	20.8 µM
O=C1CC(c2ccc(N3CCOCC3)cc2)(c2ccsc2)NC(=O)C1Sc1ccccc1Cl (centres undefined)	> 100 µM
CCN1CCC(O)(c2ccc(C)cc2)C(C(=O)c2ccc(C)cc2)C1 (centres undefined)	> 57.2 µM
COC(=O)C1=C(O)c2cc(OC)c(OC)c(OC)c2[C@H](c2cc(OC)c(OC)c(OC)c2)C1C(=O)OC (some centres undefined)	> 100 µM
C/C(=N\NS(=O)(=O)c1ccc(C)cc1)C(CN1CCOCC1)C(c1ccccc1)c1c(O)c2ccccc2oc1=O (centres undefined)	> 100 µM
CCN(CC)CCCC(C)Nc1cnc(C(=O)Nc2ccc(Cl)c3cccnc23)cn1 (centres undefined)	3.31 µM
COc1ccc(NC(=O)CC(=O)N2N=C(N3CCCCC3)CC2c2ccccc2)cc1 (centres undefined)	> 100 µM
CCOc1c(Br)cc(C2C(C(=O)OC)=CN(C)C=C2C(=O)OC)cc1OC	> 100 µM
CC(C)=CC1C(COC(=O)c2cc3c(cc2Cl)OCO3)C1(C)C (centres undefined)	39.6 µM
CNC(=O)CN(CC(=O)NC)C(=O)NC	> 100 µM
COc1cc2nc3sc(C(=O)Nc4ccc(C(=O)OC(C)C)cc4)c(C(=O)Nc4ccc(Cl)cc4C)n3c(=O)c2cc1OC	> 100 µM
CN(C)c1ccc(-c2cc(=O)c3cc4c(cc3[nH]2)OCO4)cc1	> 100 µM
O=c1[nH]c(Nc2ccc(F)c(Cl)c2)nc2nc[nH]c12	> 100 µM
Cc1cc(N2CCCCC2)nc(N(CCCNc2ccnc3cc(Cl)ccc23)Cc2ccco2)n1	3.06 µM
COC(=O)/C=C/c1ccc2c(c1)CCC2	> 100 µM
CCSc1nc(N)c2c(-c3ccc(OC)c(OC)c3)c3c(nc2n1)CCCC3	> 100 µM
CN(NC(=O)c1ccco1)C1=NCCN1	> 100 µM
CC[C@H](C)[C@H]1NC(=O)[C@@H](N[C@](C)(O)[C@@H](N)CC(C)C)[C@@H](C)OC(=O)[C@H](Cc2ccc(OC)cc2)N(C)C(=O)[C@@H]2CCCN2C(=O)[C@H](CC(C)C)NC(=O)[C@@H](C)C(=O)[C@H](C(C)C)OC(=O)C[C@@H]1O	0.665 µM

* * *

# Test system: UACC-62 melanoma
# assay_details: NCI tumour cell line growth inhibition, 48 h; in the data active = GI50 below about 0.43 µM; inactive = the rest
Classes used: yes = active, no = inactive

molecule	group_label
O=S(=O)(O)O.[NH-]C1CCCCC1[NH-].[Pt+2] (stereo not given)	no
CN(C)c1ccc(N2Cc3ccccc3OC3=C2C(=O)c2c(O)ccc(O)c2C3=O)cn1	yes
COC(=O)Nc1nc2ccc(Oc3ccc(NC(=O)Nc4cccc(C(=O)O)c4)cc3)cc2[nH]1	no
CC1CC2(C)ON=C(c3ccccc3)N2c2ccccc2S1 (stereo not given)	no
Oc1ccc2cc(Br)ccc2c1-c1c(O)ccc2cc(Br)ccc12	no
O=[N+]([O-])c1ccc(Br)c([N+](=O)[O-])c1	no
Cn1nccc1Nc1nccc(-c2cc3c(s2)C(C)(C)N(CCN2CCOCC2)C3=O)n1	yes
Cn1ccnc1C(=O)/C=C/c1ccc(C(=O)Nc2ccc(Cl)cc2)cc1	no
COc1ccc2c(c1)c(-c1ccc(-c3cn(S(=O)(=O)c4ccccc4)c4ccc(OC)cc34)s1)cn2S(=O)(=O)c1ccccc1	no
CCN(CC)CCCC(C)Nc1cnc(C(=O)Nc2ccc(Cl)c3cccnc23)cn1 (stereo not given)	no

* * *

# Test system: HCT-116 colon
# assay_details: NCI tumour cell line growth inhibition, 48 h
Kindly return 1 if reported TGI is no lower than 3 µM; return -1 if it is lower.

molecule	group_label
S=C1SC(=Nc2ccccc2)C(=Nc2ccccc2)N1c1ccccc1	1
CCC[CH2][Sn]1([CH2]CCC)[O]C(=O)c2cc(I)cc(I)c2[O]1	-1
C=CC(Cl)(CBr)CCC(Br)=C(C)C (stereo not given)	1
COc1ccc2c(c1)C(=O)/C(=C/c1cccc(OCC(=O)Nc3nc4c(s3)CCCC4)c1)O2	-1
Cn1ccnc1C(=O)/C=C/c1ccc(C(=O)Nc2ccc(Cl)cc2)cc1	-1
CC(C)=CCC[C@@H](C)C1=C(O)C(Nc2ccccc2Br)=C(C)C(=O)C1=O	1
CCCCCCCC1(N=[N+]=[N-])C(=O)c2ccccc2N(C)C1=O (stereo not given)	1
COc1cc2cc(C(=O)N3CC(CCl)c4c3cc([N+](=O)[O-])c3ccccc43)[nH]c2c(OC)c1OC (stereo not given)	1
O=C1/C(=C/C=C/c2ccccc2)N=C(c2ccccc2)N1C1Nc2cc3c(cc2S1)NC(N1C(=O)/C(=C/C=C/c2ccccc2)N=C1c1ccccc1)S3 (stereo not given)	1
CCOC12OC3=C(CC1CC1=C(CCC1=O)O2)C(=O)CC3 (stereo not given)	1
O=C(O)C(CP(=O)(O)O)=C(Cl)Cl	1
OC12c3ccccc3C1(N1CCOCC1)CCCCC21OCCCO1 (stereo not given)	1
Cn1cc(C2=C(c3cccc4ccccc34)C(=O)NC2=O)c2ccccc21	1
COc1cc(O)c2c(O)c3c(c4c2c1[C@]1(C4)C(C)=CCCC1(C)C)[C@H](O)[C@@]1(O)CC(=O)C(C(N)=O)=C(O)[C@@]1(O)C3=O	-1
O=S(=O)(/C=C/c1ccc(Cl)cc1Cl)Cc1ccccc1CS(=O)(=O)/C=C/c1ccc(Cl)cc1Cl	1
CC(C)(C)NCc1cc(Nc2ccnc3cc(Cl)ccc23)cc(-c2ccc(Cl)cc2)c1O	1
COc1cc(O)cc(/C=C/c2ccc(O)cc2)c1	1
COc1cccc2c1CCc1ccccc1CC2=O	1
CC[C@@H](C(=O)[C@@H](C)[C@@H](O)[C@H](C)[C@@H]1O[C@@H]([C@@H](CC)C(=O)O)CC[C@@H]1C)C1O[C@]2(C=CC(=O)[C@]3(CC[C@@](C)([C@H]4CC[C@](O)(CC)[C@H](C)O4)O3)O2)[C@H](C)C[C@@H]1C (stereo not given in full)	1

Ref: PubChem BioAssay (NCI)
